Assay: logP determination by HPLC on a reversed-phase column (EEC Directive 79/831 Annex V.A8)
Assay type: physicochemical
Settings: reversed-phase C18 HPLC column, pH 2.3, C 18 reversed phase, 43° C.
The label depends only on chromatographic logP: fulfilled if it is at least 2, not fulfilled if it is smaller.

Solved entries:
CC(C)CC(C)c1ccccc1NC(=O)c1cn(C)nc1C=O (stereo not drawn) :: fulfilled
CCOC(=O)c1sc(C)nc1OC(F)F :: fulfilled
Cc1nc(OC(F)F)c(C(=O)O)s1 :: not fulfilled
Cc1nc(O)c(C(=O)Nc2ccccc2C(C)CC(C)C)s1 (stereo not drawn) :: fulfilled
COc1nc(C)sc1C(=O)O :: not fulfilled

Next item in the queue.
Exercise: chromatographic logP >= 2 for COC(=O)c1cn(C)nc1C(Cl)Cl ?
Solution: not fulfilled

* * *

Form field: pest or weed control at 500 g/ha (one value per entry).
Test system: Puccinia recondita
Test: Puccinia test (wheat)/protective
Assay type: in vivo
Conditions: 240 h, wheat plants, protective spray, evaluation 10 days after inoculation, read-out: Efficacy in %
Respond with the bare value in %.

Guide cases for pest or weed control at 500 g/ha, answers given:
Cc1nc(Cl)sc1C(=O)Nc1ccccc1C(C)CC(C)C (stereo not shown) :: 100
CC(C)CC(C)c1ccccc1NC(=O)c1ccoc1C(F)(F)F (stereo not shown) [drawing 119] :: 100
CC(C)CC(C)c1cc(F)ccc1NC(=O)c1cn(C)nc1Cl (stereo not shown) :: 100
CC(C)CC(C)c1cc(F)ccc1NC(=O)c1cn(C)nc1C(F)F (stereo not shown) [drawing 124] :: 100
Cc1ccsc1C(=O)Nc1ccc(F)cc1C(C)CC(C)C (stereo not shown) [drawing 128] :: 100
Cc1nc(C(F)F)c(C(=O)Nc2ccc(F)cc2C(C)CC(C)C)s1 (stereo not shown) [drawing 129] :: 100
CC(C)CC(C)c1cc(F)ccc1NC(=O)c1cn(C)nc1C(F)(F)F (stereo not shown) [drawing 121] :: 100
Cc1sccc1C(=O)Nc1ccc(F)cc1C(C)CC(C)C (stereo not shown) [drawing 125] :: 100

Exercise: GET /values?readout=pest or weed control at 500 g/ha&item= Cc1nc(C(F)(F)F)c(C(=O)Nc2ccc(F)cc2C(C)CC(C)C)s1 (stereo not shown) [drawing 127]
Solution: 100

Exercise: GET /values?readout=pest or weed control at 500 g/ha&item= CC1=C(C(=O)Nc2ccc(F)cc2C(C)CC(C)C)SCCO1 (stereo not shown) [drawing 130]
Solution: 100

* * *

Assay: logP determination by HPLC on a reversed-phase column (EEC Directive 79/831 Annex V.A8)
Format: physicochemical
Conditions: reversed-phase C18 HPLC column, pH 2.3, C 18 reversed phase, 43° C.
The label depends only on chromatographic logP: 1.0 if it is at least 2, 0.0 if it is smaller.

Solved entries:
COc1nc(C)sc1C(=O)Nc1ccccc1C(C)CC(C)C (stereo not drawn) :: 1.0
CCOC(=O)c1cn(C)nc1OC :: 0.0
Cn1cc(C(=O)O)c(C=O)n1 :: 0.0

Exercise: chromatographic logP >= 2 for CCOC(=O)c1sc(C)nc1OC ?
Solution: 0.0

Exercise: chromatographic logP >= 2 for COC(=O)c1cn(C)nc1C=O ?
Solution: 0.0

Exercise: chromatographic logP >= 2 for CC(C)CC(C)c1ccccc1NC(=O)c1cn(C)nc1C(Cl)Cl (stereo not drawn) ?
Solution: 1.0

Numbers sourced from patent US20070196406A1.
